# Experiment: differential killing of epithelial or mesenchymal cells, primary screen, imaging, PC-3E GFP, TEM4-18 mCherry, co-culture (AID 1345086);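 also: normalised mesenchymal count divided by normalised epithelial count so high means epithelial killing; cells exposed to compound for 72 h before imaging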
# Condition set: imaging cell counts, at 1 µM, actives lie on both sides, counts scaled to control wells, 1 = unselective
Experimental readout: red/green cell ratio (normalised)

1) CC1O[C@@H](Oc2c(-c3ccc(O)c(O)c3)oc3cc(O)cc(O)c3c2=O)[C@H](O)[C@H](O)[C@H]1O (stereo partly specified) | 1.01
2) CC[C@@H]1OC(=O)C[C@@H](O)[C@H](C)[C@@H](O[C@@H]2O[C@H](C)[C@@H](O)[C@H](N(C)C)[C@H]2O)[C@@H](CCN2C[C@H](C)C[C@H](C)C2)C[C@@H](C)C(=O)/C=C/C(C)=C\[C@@H]1CO[C@@H]1O[C@H](C)[C@@H](O)[C@@H](OC)[C@H]1OC | 0.98
3) C=CCCCCCCCCCCCc1ccco1 | 1.12
4) C[C@@H]1O[C@@H](O[C@H]2[C@@H](Oc3cc(O)c4c(c3)O[C@H](c3ccc(O)cc3)CC4=O)O[C@H](CO)[C@@H](O)[C@@H]2O)[C@H](O)[C@H](O)[C@H]1O | 1.11
5) COC(=O)[C@@H]1OC(=O)C2OC23[C@@]1(C)CCC1[C@@]2(C)CCC(=O)C(C)(C)C2C[C@@H](OC(C)=O)[C@]13C (stereo partly specified) | 1.04
6) C=COCC(F)(F)F | 0.85
7) CO/N=C(/C(=O)N[C@@H]1C(=O)N2C(C(=O)OCSC(=O)c3ccco3)=CCS[C@H]12)c1csc(N)n1 | 0.72
8) COc1ccc2[nH]c(S(=O)Cc3ncc(C)c(OC)c3C)nc2c1 (stereo unspecified) | 0.83
9) CC(=O)OCC(=O)[C@@]12OC(C)(C)O[C@@H]1CC1C3C[C@H](F)C4=CC(=O)C=C[C@]4(C)[C@@]3(F)[C@@H](O)C[C@@]12C (stereo partly specified) | 1.1
10) Cc1cc(CC(C)CC(C)(C)C)n(O)c(=O)c1 (stereo unspecified) (tested in a mixture with another compound) | 0.92
11) O=Cc1ccccc1O[C@@H]1O[C@H](CO)[C@H](O)[C@@H](O)[C@H]1O | 0.97
12) CCC(CC)O[C@@H]1C=C(C(=O)OC)C[C@H](N)[C@H]1NC(C)=O | 0.99
13) COC(=O)[C@H](Cc1ccccc1)NC(=O)/C(=C1\OC(=O)C(c2ccccc2)=C1O)c1ccccc1 | 0.97
14) CC1(C)O[C@@H]2CC3C4CCC5=CC(=O)C=C[C@]5(C)[C@@]4(F)[C@@H](O)C[C@]3(C)[C@]2(C(=O)CO)O1 (stereo partly specified) | 1.43
15) CC(CC(=O)N1C(=O)OC[C@H]1c1ccccc1)N1CCOC1=S (stereo partly specified) | 0.87
16) CCc1cc(Cl)c(OC)c(C(=O)NCC2CCCN2CC)c1O (stereo unspecified) | 0.67
